Value source: patent US9371290B2

ENDPOINT: melting point

CN(C)c1ccc(Nc2cc(=O)n(-c3cccc(Cl)c3)nc2-c2nc[nH]n2)cc1 :: 243 to 245 °C
O=c1cc(Nc2ccc3c(c2)OCO3)c(-c2nc[nH]n2)nn1-c1ccc(Cl)cc1 :: 270 to 273 °C
O=c1cc(Nc2ccc(N3CCNCC3)cc2)c(-c2nc[nH]n2)nn1-c1ccc(Cl)cc1 :: 212 to 224 °C

Asked: Could you share which melting point value was measured for COc1cc(=O)n(-c2ccccc2)nc1-c1nc[nH]n1 ?
Given back: 235 to 240 °C

Asked: Now the compound O=c1cc(Oc2ccccc2)c(-c2cn[nH]c2)nn1-c1ccccc1
Given back: 245 to 247 °C

###

ASSAYED TARGET: Recombinant human VAP-1 SSAO (Homo sapiens, UniProt Q16853)
Construct: made in house; host or cells: Chinese Hamster Ovary (CHO) cells; clarified NP40 cell lysate used directly
Sequence (Q16853 whole entry): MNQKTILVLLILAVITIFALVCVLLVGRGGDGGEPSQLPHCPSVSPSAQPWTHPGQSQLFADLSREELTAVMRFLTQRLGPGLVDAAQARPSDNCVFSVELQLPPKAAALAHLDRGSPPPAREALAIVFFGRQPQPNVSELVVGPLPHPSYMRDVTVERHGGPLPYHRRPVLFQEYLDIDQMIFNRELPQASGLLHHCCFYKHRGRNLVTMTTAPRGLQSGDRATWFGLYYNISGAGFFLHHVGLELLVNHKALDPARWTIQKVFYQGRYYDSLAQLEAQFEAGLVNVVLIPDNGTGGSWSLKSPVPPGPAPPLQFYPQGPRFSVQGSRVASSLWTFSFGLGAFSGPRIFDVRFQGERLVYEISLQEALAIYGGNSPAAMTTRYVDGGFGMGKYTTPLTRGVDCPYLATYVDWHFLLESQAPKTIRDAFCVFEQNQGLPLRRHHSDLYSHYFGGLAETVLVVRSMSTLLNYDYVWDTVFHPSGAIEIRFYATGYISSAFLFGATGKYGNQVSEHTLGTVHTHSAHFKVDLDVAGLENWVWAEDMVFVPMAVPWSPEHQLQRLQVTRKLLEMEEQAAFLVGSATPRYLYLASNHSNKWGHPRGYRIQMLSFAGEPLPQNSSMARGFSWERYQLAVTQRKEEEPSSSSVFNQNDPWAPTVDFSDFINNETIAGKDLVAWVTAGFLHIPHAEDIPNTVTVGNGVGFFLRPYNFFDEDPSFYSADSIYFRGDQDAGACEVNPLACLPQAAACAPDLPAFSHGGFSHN
ASSAY OVERVIEW: In vitro inhibition of VAP-1 SSAO activity (coupled colorimetric method, benzylamine substrate)
Format: biochemical
CONDITIONS: CHO cell lysate, 1 mM benzylamine, read-out: VAP-1 SSAO Inhibitory activity IC50
Known IC50 of a selection of compounds
Please give a number only; it is taken to be in nM.

In the examples that follow, each entry is paired with its recorded IC50.
O=c1cc(Nc2cccnc2)c(-c2nc[nH]n2)nn1-c1ccccc1 :: 3500
O=c1cc(NCCN2CCOCC2)c(-c2nc[nH]n2)nn1-c1ccccc1 :: 2000
O=c1cc(Sc2ccccc2)c(-c2nc[nH]n2)nn1-c1ccccc1 :: 640
O=c1cc(NCC2CC2)c(-c2nc[nH]n2)nn1-c1ccc(Cl)cc1 :: 170

Asked: I would be grateful if you could share the reported IC50 for C#CCCNc1cc(=O)n(-c2ccc(Cl)cc2)nc1-c1nc[nH]n1 .
Given back: 73

Asked: Again, but for Cn1cc(-c2nn(-c3ccccc3)c(=O)cc2Oc2ccccc2)cn1
Given back: 236000

Asked: Next compound: CCOc1cc(=O)n(-c2ccccc2)nc1-c1nc[nH]n1
Given back: 16000

Asked: Please give the result for COc1cccc(-n2nc(-c3nc[nH]n3)c(Oc3ccccc3)cc2=O)c1 too.
Given back: 2000

Asked: How about this compound: O=c1cc(Nc2ccc(N3CCCCC3)cc2)c(-c2nc[nH]n2)nn1-c1ccc(Cl)cc1
Given back: 280

###

ASSAYED TARGET: Recombinant human VAP-1 SSAO (Homo sapiens)
Construct: clarified NP40 cell lysate used directly
ASSAY OVERVIEW: In vitro inhibition of VAP-1 SSAO activity (coupled colorimetric method, benzylamine substrate)
CONDITIONS: CHO cell lysate, 1 mM benzylamine, read-out: VAP-1 SSAO Inhibitory activity IC50
ENDPOINT: pIC50
pIC50 here is simply -log10 of the concentration when that concentration is written in mol/L.

C=CCOc1cc(=O)n(-c2ccc(Cl)cc2)nc1-c1nc[nH]n1 :: 5.66

Moving on to the next molecule.
Asked: What measured pIC50 goes with COc1ccc(Oc2cc(=O)n(-c3ccccc3)nc2-c2nc[nH]n2)cc1 ?
Given back: 6.43

###

Measured melting point, listed per entry for reference.

Field: example entries. Status: answers known.
Cn1cc(-c2nn(-c3ccccc3)c(=O)cc2Oc2ccccc2)cn1 :: 195 to 197 °C
CC(C)Nc1cc(=O)n(-c2ccccc2)cc1-c1nc[nH]n1 :: 307 to 310 °C

Asked: Returns the measured melting point for the input compound. Input: Nc1ccc(Nc2cc(=O)n(-c3ccc(Cl)cc3)nc2-c2nc[nH]n2)cc1
Given back: 278 to 281 °C

Asked: Another compound to check: O=c1cc(Sc2ccccc2)c(-c2nc[nH]n2)nn1-c1ccccc1
Given back: 245 to 250 °C

Asked: Param item: COc1ccc(Nc2cc(=O)n(-c3ccc(Cl)cc3)nc2-c2nc[nH]n2)cc1
Given back: 251 to 252 °C

Asked: Request: O=c1cc(Oc2ccccc2)c(-c2ccc(F)cc2)nn1-c1ccccc1
Given back: 146 to 148 °C

Asked: Then this compound: Cc1nc(-c2nn(-c3ccccc3)c(=O)cc2Oc2ccccc2)n[nH]1
Given back: 245 to 247 °C

Asked: Proceed to CCCc1cn(-c2cc(=O)n(-c3ccccc3)nc2C(=O)OC)nn1
Given back: 146 to 148 °C

Asked: Now consider O=c1cc(Nc2cccnc2)c(-c2nc[nH]n2)nn1-c1ccccc1 .
Given back: 172 to 174 °C

Asked: Quick one: O=c1cc(Nc2ccc(N3CCN(Cc4ccccc4)CC3)cc2)c(-c2nc[nH]n2)nn1-c1ccc(Cl)cc1
Given back: 248 to 251 °C

Asked: Also check O=c1cc(Nc2ccccc2)c(-c2nc[nH]n2)nn1-c1ccccc1
Given back: 287 to 290 °C
